- System: Escherichia coli
- test: Inhibition constant (Ki) was determined in Escherichia coli
- Format: functional
pKi for assorted molecules
Remember the convention: pKi equals -log10 of concentration in molar.

Guide cases for pKi, answers given:
[
  {
    "molecule": "Nc1nc(N)c2nc(CNc3ccc(C(=O)N[C@@H](CCC(=O)O)C(=O)O)cc3)cnc2n1 [AMINOPTERIN]",
    "pKi": 10.05
  },
  {
    "molecule": "Nc1nc(N)c2nc(CNc3ccc(C(=O)NC(CCC(=O)O)C(=O)O)c(F)c3)cnc2n1 (stereo not drawn)",
    "pKi": 10.10
  }
]

// Nc1nc(N)c2nc(CNc3ccc(C(=O)NC(CCC(=O)O)C(=O)O)cc3F)cnc2n1 (stereo not drawn) : pKi value = 10.52

###

IC50 for assorted compounds
- assay-target: Dihydrofolate reductase (Escherichia coli)
- Sequence (P0ABQ4 whole entry): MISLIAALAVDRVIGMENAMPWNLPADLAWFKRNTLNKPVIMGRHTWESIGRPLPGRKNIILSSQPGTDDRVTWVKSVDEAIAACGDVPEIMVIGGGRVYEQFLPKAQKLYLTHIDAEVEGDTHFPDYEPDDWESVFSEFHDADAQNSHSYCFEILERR
Expressed in nM, but write only the number.

// Nc1nc(N)c2nc(CNc3ccc(C(=O)NC(CCC(=O)O)C(=O)O)cc3F)cnc2n1 (stereo not drawn) : IC50 value = 5

// Nc1nc(N)c2nc(CNc3ccc(C(=O)NC(CCC(=O)O)C(=O)O)c(F)c3)cnc2n1 (stereo not drawn) : IC50 value = 10

// "Nc1nc(N)c2nc(CNc3ccc(C(=O)N[C@@H](CCC(=O)O)C(=O)O)cc3)cnc2n1" : IC50 value = 11

###

The reader will find pIC50 measurements below, all made with Dihydrofolate reductase (Lactobacillus casei, UniProt P00381).
Sequence (P00381 whole entry): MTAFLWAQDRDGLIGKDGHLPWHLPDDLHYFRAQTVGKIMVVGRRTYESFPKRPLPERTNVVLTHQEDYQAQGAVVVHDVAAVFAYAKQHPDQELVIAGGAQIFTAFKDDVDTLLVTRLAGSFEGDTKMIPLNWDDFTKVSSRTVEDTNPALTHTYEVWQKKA
Remember the convention: pIC50 equals -log10 of concentration in molar.

[
  {
    "compound": "Nc1nc(N)c2nc(CNc3ccc(C(=O)NC(CCC(=O)O)C(=O)O)cc3F)cnc2n1 (stereo not drawn)",
    "endpoint-value": 8.46
  },
  {
    "compound": "Nc1nc(N)c2nc(CNc3ccc(C(=O)N[C@@H](CCC(=O)O)C(=O)O)cc3)cnc2n1 [AMINOPTERIN]",
    "endpoint-value": 8.30
  }
]

Please look at the following compound next.
Dihydrofolate reductase (Lactobacillus casei, UniProt P00381) pIC50 of Nc1nc(N)c2nc(CNc3ccc(C(=O)NC(CCC(=O)O)C(=O)O)c(F)c3)cnc2n1 (stereo not drawn) is 8.33

###

- assay-target: Lacticaseibacillus casei
- test: Inhibition constant (Ki) was determined in Lactobacillus casei
attribute-measured: Ki (nM)
Expressed in nM, but write only the number.

[
  {
    "molecule": "Nc1nc(N)c2nc(CNc3ccc(C(=O)NC(CCC(=O)O)C(=O)O)cc3F)cnc2n1 (stereo not drawn)",
    "assay-target": "Lacticaseibacillus casei",
    "Ki [nM]": 0.06
  },
  {
    "molecule": "Nc1nc(N)c2nc(CNc3ccc(C(=O)N[C@@H](CCC(=O)O)C(=O)O)cc3)cnc2n1",
    "assay-target": "Lacticaseibacillus casei",
    "Ki [nM]": 0.11
  }
]

Please look at the following molecule next.
// Nc1nc(N)c2nc(CNc3ccc(C(=O)NC(CCC(=O)O)C(=O)O)c(F)c3)cnc2n1 (stereo not drawn) : Ki value = 0.095

###

pIC50 for assorted molecules
- assay-target: Dihydrofolate reductase (Homo sapiens)
- Sequence (P00374 whole entry): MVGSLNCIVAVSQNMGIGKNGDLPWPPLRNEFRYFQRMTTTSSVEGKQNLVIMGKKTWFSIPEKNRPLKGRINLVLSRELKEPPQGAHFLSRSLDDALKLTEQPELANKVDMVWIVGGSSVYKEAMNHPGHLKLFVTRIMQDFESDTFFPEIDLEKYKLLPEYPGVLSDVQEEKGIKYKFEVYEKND
- test: Inhibition of dihydrofolate reductase in HeLa cells
- measurement-parameters: read-out: I50
Remember the convention: pIC50 equals -log10 of concentration in molar.

[
  {
    "molecule": "Nc1nc(N)c2nc(CNc3ccc(C(=O)NC(CCC(=O)O)C(=O)O)cc3F)cnc2n1 (configuration not stated)",
    "pIC50": 7.72
  }
]

Please look at the following molecule next.
Dihydrofolate reductase (Homo sapiens) pIC50 of Nc1nc(N)c2nc(CNc3ccc(C(=O)NC(CCC(=O)O)C(=O)O)c(F)c3)cnc2n1 (configuration not stated) is 7.57
